- experiment.notes: Half life in human hepatocytes
- Format: ADME, cell-based, Liver, Hepatocyte
recorded.metric: half-life (h)
Answers are plain numbers, in h.

Form field: reported half-life of `CN(C)CCN1CCN(C(=O)c2cc(C(C)(C)C)sc2NC(=O)Nc2cccc(Cl)c2Cl)CCC1=O` 5.67

----------
- experiment.notes: Apparent permeability across basolateral to apical side in human Caco2 cells by UPLC analysis
- Assay type: ADME, cell-based
- applied.conditions: Caco-2
recorded.metric: Papp B→A

Form field: reported Papp B→A of `CN(C)CCN1CCN(C(=O)c2cc(C(C)(C)C)sc2NC(=O)Nc2cccc(Cl)c2Cl)CCC1=O` 5.3 ×10⁻⁶ cm/s

----------
- experiment.notes: Apparent permeability across apical to basolateral side in human Caco2 cells by UPLC analysis
- Type: ADME, cell-based
- applied.conditions: Caco-2
recorded.metric: Papp A→B (×10⁻⁶ cm/s)
One number for each entry, in ×10⁻⁶ cm/s.

Form field: reported Papp A→B of `CN(C)CCN1CCN(C(=O)c2cc(C(C)(C)C)sc2NC(=O)Nc2cccc(Cl)c2Cl)CCC1=O` 0.39
